- System: ncRNAs (SEQ ID NO 28-89)
- ASSAY_METHOD_TEXT: ncRNA arrays of melanocytes, keratinocytes, normal skin, melanoma cell lines and patient samples
- Parameters: species or system human
- EXPERIMENTAL_CONTEXT: melanoma patient 26 sample compared to normal skin
ncRNA array expression, patient 26 values by entry
Provide a numeric answer; units are not to be included.

Check out these entries, answers already filled in.
SUBSTANCE	MEASUREMENT_TARGET	ncRNA array expression, patient 26
SEQ ID NO 54 (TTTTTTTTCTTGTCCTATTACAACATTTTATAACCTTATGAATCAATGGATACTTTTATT; listed as DNA, chemistry not given here; listed as Homo sapiens)	ncRNAs (SEQ ID NO 28-89)	2.689
SEQ ID NO 82 (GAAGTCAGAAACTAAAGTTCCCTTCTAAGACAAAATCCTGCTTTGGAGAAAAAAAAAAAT; listed as DNA, chemistry not given here; listed as Homo sapiens)	ncRNAs (SEQ ID NO 28-89)	−3.448

Q) Value lookup for ncRNA array expression, patient 26; key = SEQ ID NO 56 (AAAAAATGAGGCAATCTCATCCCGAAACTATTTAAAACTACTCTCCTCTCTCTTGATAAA; listed as DNA, chemistry not given here; listed as Homo sapiens)
A) −2.501

---

- Tested on: ncRNAs (SEQ ID NO 28-89)
- ASSAY_METHOD_TEXT: ncRNA arrays of melanocytes, keratinocytes, normal skin, melanoma cell lines and patient samples
- Parameters: species or system human
- EXPERIMENTAL_CONTEXT: melanoma patient 22 sample compared to normal skin
// classify(record): look up ncRNA array expression, patient 22 in ranges range 1 = under -0.5, range 2 = from -0.5 up to 0.9, range 3 = 0.9 and over

Answered cases to consult:
SUBSTANCE	ASSIGNED_CLASS
SEQ ID NO 83 (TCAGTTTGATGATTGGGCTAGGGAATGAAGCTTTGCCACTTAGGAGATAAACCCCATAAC; listed as DNA, chemistry not given here; listed as Homo sapiens)	range 1
SEQ ID NO 54 (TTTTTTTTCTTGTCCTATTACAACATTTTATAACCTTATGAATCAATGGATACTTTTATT; listed as DNA, chemistry not given here; listed as Homo sapiens)	range 2
SEQ ID NO 59 (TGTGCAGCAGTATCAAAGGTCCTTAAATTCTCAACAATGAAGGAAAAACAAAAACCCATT; listed as DNA, chemistry not given here; listed as Homo sapiens)	range 1
SEQ ID NO 61 (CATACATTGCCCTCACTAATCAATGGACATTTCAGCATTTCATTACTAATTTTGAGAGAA; listed as DNA, chemistry not given here; listed as Homo sapiens)	range 2
SEQ ID NO 73 (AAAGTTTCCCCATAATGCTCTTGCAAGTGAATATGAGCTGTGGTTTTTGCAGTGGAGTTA; listed as DNA, chemistry not given here; listed as Homo sapiens)	range 3

Q) Band for SEQ ID NO 62 (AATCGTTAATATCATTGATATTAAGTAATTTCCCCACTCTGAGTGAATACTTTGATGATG; listed as DNA, chemistry not given here; listed as Homo sapiens) ?
A) range 2

---

ncRNA array expression, patient 2 values by entry
- System: ncRNAs (SEQ ID NO 28-89)
- ASSAY_METHOD_TEXT: ncRNA arrays of melanocytes, keratinocytes, normal skin, melanoma cell lines and patient samples
- Set-up: species or system human
- EXPERIMENTAL_CONTEXT: melanoma patient 2 sample compared to normal skin
Provide a numeric answer; units are not to be included.

Check out these entries, answers already filled in.
SUBSTANCE	MEASUREMENT_TARGET	TEST_RESULT
SEQ ID NO 46 (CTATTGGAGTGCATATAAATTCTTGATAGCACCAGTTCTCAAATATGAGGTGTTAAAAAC; listed as DNA, chemistry not given here; listed as Homo sapiens)	ncRNAs (SEQ ID NO 28-89)	0.198
SEQ ID NO 54 (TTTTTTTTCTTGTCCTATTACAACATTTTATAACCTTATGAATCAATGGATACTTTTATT; listed as DNA, chemistry not given here; listed as Homo sapiens)	ncRNAs (SEQ ID NO 28-89)	0.357
SEQ ID NO 34 (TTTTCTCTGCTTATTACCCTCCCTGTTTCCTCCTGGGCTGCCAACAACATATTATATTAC; listed as DNA, chemistry not given here; listed as Homo sapiens)	ncRNAs (SEQ ID NO 28-89)	2.375
SEQ ID NO 49 (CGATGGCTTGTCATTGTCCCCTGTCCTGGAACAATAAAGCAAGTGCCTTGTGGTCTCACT; listed as DNA, chemistry not given here; listed as Homo sapiens)	ncRNAs (SEQ ID NO 28-89)	−3.131
SEQ ID NO 86 (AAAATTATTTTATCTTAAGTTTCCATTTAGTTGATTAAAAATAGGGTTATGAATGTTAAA; listed as DNA, chemistry not given here; listed as Homo sapiens)	ncRNAs (SEQ ID NO 28-89)	2.021

Q) Value lookup for ncRNA array expression, patient 2; key = SEQ ID NO 30 (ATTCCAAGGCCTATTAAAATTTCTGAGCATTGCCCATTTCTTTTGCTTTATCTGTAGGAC; DNA, backbone and methylation of C not given here; listed as Homo sapiens)
A) 4.3
